// data source = patent US6331553A

- study_system: nNOS (Rattus norvegicus)
- Construct: a soluble cytosolic fraction of the finally obtained supernatant was used as the crude enzyme of nNOS; from tissue; host or cells: rat cerebral cortex, soluble cytosolic fraction (100,000×g supernatant)
- experimental_details: biochemical
- Set-up: species or system male Sprague Dawley (SD) rats (cerebral cortex)
- stated_conditions: mean values, duplicate, crude enzyme from rat cerebral cortex; 37° C. 10 min; read-out: Inhibitory action IC50 nNOS
Categories are assigned from the measured IC50 using these intervals: LOW (below 30 nM), MID (30 nM to below 70 nM), HIGH (70 nM or more)

compound	qualitative_label
CCOc1ccc(Nc2cc(C)ccn2)cc1CN	MID
Cc1ccnc(Nc2cccc(CN)c2OC(C)C)c1	LOW
CSc1ccc([N+](=O)[O-])c(Nc2cccc(CN)c2)n1	HIGH

Exam item: State the band of `Cc1ccnc(Nc2cccc(CN)c2)c1`
Marked response: MID

Exam item: Now consider `COc1ccc([N+](=O)[O-])c(Nc2cccc(CN)c2Cl)n1` and answer again.
Marked response: MID

Exam item: Now consider `COc1c(CN)cccc1Nc1cc(C)ccn1` and answer again.
Marked response: LOW

Exam item: Now consider `COc1ccc([N+](=O)[O-])c(Nc2cccc(C(C)(C)N)c2)n1` and answer again.
Marked response: LOW

Exam item: Now consider Cc1ccc([N+](=O)[O-])c(Nc2cccc(CN)c2)n1.Cl [Example 52, hydrochloride] and answer again.
Marked response: HIGH

Exam item: Now consider `COc1ccc([N+](=O)[O-])c(Nc2ccc(CCN)cc2)n1` and answer again.
Marked response: HIGH

Exam item: Now consider `COc1ccc([N+](=O)[O-])c(Nc2cccc(CN)c2C)n1` and answer again.
Marked response: LOW

====

- study_system: eNOS (Bos taurus)
- Construct: the resulting supernatant was used as the crude enzyme of eNOS; endogenous in cells; host or cells: CPAE (cow pulmonary arterial endothelium cells), 1% Triton X-100 extract
- Sequence (P29473 2-1205): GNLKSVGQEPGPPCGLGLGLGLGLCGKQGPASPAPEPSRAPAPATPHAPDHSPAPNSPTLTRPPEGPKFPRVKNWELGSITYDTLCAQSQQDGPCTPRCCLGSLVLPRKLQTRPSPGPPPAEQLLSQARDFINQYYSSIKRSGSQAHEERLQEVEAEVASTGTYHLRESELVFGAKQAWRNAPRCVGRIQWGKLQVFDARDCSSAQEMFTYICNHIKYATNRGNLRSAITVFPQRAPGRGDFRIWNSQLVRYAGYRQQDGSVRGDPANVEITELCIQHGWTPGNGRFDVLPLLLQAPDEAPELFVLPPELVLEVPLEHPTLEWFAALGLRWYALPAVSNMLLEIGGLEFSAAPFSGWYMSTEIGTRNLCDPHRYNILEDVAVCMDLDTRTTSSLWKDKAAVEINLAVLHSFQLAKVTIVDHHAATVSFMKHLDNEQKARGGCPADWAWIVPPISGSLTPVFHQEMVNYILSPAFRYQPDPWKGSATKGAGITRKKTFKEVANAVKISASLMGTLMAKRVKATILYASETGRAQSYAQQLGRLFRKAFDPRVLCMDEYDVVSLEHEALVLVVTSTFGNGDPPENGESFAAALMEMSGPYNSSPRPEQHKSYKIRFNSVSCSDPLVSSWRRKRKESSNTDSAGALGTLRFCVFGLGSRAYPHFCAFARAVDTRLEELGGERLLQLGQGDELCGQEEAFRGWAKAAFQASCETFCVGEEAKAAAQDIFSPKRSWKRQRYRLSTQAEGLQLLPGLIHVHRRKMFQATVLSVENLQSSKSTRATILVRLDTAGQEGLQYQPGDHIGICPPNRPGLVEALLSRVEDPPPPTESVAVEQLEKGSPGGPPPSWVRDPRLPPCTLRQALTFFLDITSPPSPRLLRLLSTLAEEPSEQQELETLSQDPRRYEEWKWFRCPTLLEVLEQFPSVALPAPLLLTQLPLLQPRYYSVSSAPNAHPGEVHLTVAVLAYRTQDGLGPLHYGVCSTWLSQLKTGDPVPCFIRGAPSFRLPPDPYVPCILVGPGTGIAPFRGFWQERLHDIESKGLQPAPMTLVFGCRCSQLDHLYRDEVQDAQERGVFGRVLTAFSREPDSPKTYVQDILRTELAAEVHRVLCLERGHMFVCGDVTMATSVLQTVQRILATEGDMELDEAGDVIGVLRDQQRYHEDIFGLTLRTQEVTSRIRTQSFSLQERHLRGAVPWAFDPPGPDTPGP
- experimental_details: Inhibitory effect on crude eNOS (conversion of L-[3H]arginine to L-[3H]citrulline)
- Assay type: biochemical, Cow (pulmonary arterial endothelium cells, CPAE)
observed_property: pIC50
Numbers only, as −log10 of the molar value.

Exam item: Fill in the blank: the reported pIC50 of `Cc1ccnc(Nc2ccccc2CCN)c1` is ____.
Marked response: 5.90

====

- study_system: nNOS (Rattus norvegicus)
- Construct: a soluble cytosolic fraction of the finally obtained supernatant was used as the crude enzyme of nNOS; from tissue; host or cells: rat cerebral cortex, soluble cytosolic fraction (100,000×g supernatant)
- experimental_details: biochemical
- Design: species or system male Sprague Dawley (SD) rats (cerebral cortex)
- stated_conditions: mean values, duplicate, crude enzyme from rat cerebral cortex; 37° C. 10 min; read-out: Inhibitory action IC50 nNOS
observed_property: IC50
Please report the result as a number followed by the unit.

# count of solved cases: 3
compound	study_system	IC50
COc1ccc([N+](=O)[O-])c(Nc2ccc(Cl)c(CN)c2)n1 [Example 466]	nNOS (Rattus norvegicus)	0.0355 µM
COc1ccc([N+](=O)[O-])c(Nc2ccc(F)c(CN)c2)n1 [Example 467]	nNOS (Rattus norvegicus)	0.0196 µM
CCc1ccc(Nc2cc(C)ccn2)cc1CN [Example 482]	nNOS (Rattus norvegicus)	0.0505 µM

Here's the next entry for you.
Exam item: Fill in the blank: the reported IC50 of COc1ccc([N+](=O)[O-])c(Nc2cccc(CN)c2OC)n1 [Example 465] is ____.
Marked response: 0.0312 µM

====

- study_system: nNOS (Rattus norvegicus, UniProt P29476)
- Construct: a soluble cytosolic fraction of the finally obtained supernatant was used as the crude enzyme of nNOS; from tissue; host or cells: rat cerebral cortex, soluble cytosolic fraction (100,000×g supernatant)
- experimental_details: biochemical
- Set-up: species or system male Sprague Dawley (SD) rats (cerebral cortex)
- stated_conditions: ratio of IC50 values eNOS/nNOS
Task for the reader: assign each of the following compounds its reported Selectivity eNOS/nNOS.
One number for each entry.

compound	observed_property	reported_measurement
Cc1ccnc(Nc2ccccc2CCN)c1 [Example 484]	Selectivity eNOS/nNOS	18

Give measured Selectivity eNOS/nNOS for every item shown.
1. COc1ccc([N+](=O)[O-])c(Nc2cccc(CN)c2)c1 [Example 153]
2. Cc1ccnc(Nc2cccc(C(C)(C)N)c2)c1 [Example 479]

Marked response:
1. 20
2. 12

Give measured Selectivity eNOS/nNOS for every item shown.
1. COc1ccc([N+](=O)[O-])c(Nc2cccc(C(C)(C)N)c2)n1 [Example 462]
2. COc1ccc([N+](=O)[O-])c(Nc2cccc(CN)c2)n1 [Example 18]
3. Cc1ccnc(Nc2ccc(Cl)c(CN)c2)c1 [Example 491]
4. CCc1ccc([N+](=O)[O-])c(Nc2cccc(CN)c2)n1.Cl [Example 53]
5. Cc1ccnc(Nc2cccc(CN)c2)c1 [Example 478]

Marked response:
[16, 14, 39, 77, 7]

Give measured Selectivity eNOS/nNOS for every item shown.
1. COc1c(CN)cccc1Nc1cc(C)ccn1 [Example 541]
2. COc1ccc([N+](=O)[O-])c(Nc2cccc(CN)c2C)n1 [Example 458]

Marked response:
28
19

Exam item: Fill in the blank: the reported Selectivity eNOS/nNOS of CCOc1ccc(Nc2cc(C)ccn2)cc1CN [Example 483] is ____.
Marked response: 11

====

- study_system: eNOS (Bos taurus)
- Construct: the resulting supernatant was used as the crude enzyme of eNOS; endogenous in cells; host or cells: CPAE (cow pulmonary arterial endothelium cells), 1% Triton X-100 extract
- experimental_details: Inhibitory effect on crude eNOS (conversion of L-[3H]arginine to L-[3H]citrulline)
- Format: biochemical, Cow (pulmonary arterial endothelium cells, CPAE)
- stated_conditions: mean values, duplicate, crude enzyme from CPAE cells; 37° C. 10 min; read-out: Inhibitory action IC50 eNOS
pIC50: −log10 of the molar value.
Please enter TRUE where pIC50 is greater than or equal to 6, and FALSE where it is lower.

Observe how each entry below is paired with its result.
compound	qualitative_label
Cc1ccnc(Nc2cccc(CN)c2Cl)c1	FALSE
CCc1ccc([N+](=O)[O-])c(Nc2cccc(CN)c2)n1.Cl [Example 53, hydrochloride]	FALSE
CCOc1c(CN)cccc1Nc1nc(OC)ccc1[N+](=O)[O-]	FALSE
COc1ccc([N+](=O)[O-])c(Nc2cccc(CN)c2)c1	TRUE

Now consider a different compound.
Exam item: Entry `Cc1ccnc(Nc2ccc(Cl)c(CN)c2)c1` : is its pIC50 no less than 6?
Marked response: FALSE
